Assay: Toxicity liver stage against HepG2, at 10uM
Format: cell-based
Parameters: test concentration 10 uM, cell line HepG2-A16-CD81EGFP
Conditions: human, HepG2-A16-CD81EGFP cells; read-out: INHIBITION
Overview of recorded cytotoxicity at 10 µM for various molecules
READOUT KIND: cytotoxicity at 10 µM (%)

>>> readout_value("COCCO[C@@H]1CCN(C(=O)c2ccnnc2)[C@H]1Cc1cnn(C)c1")
7.6
>>> readout_value("O=C(NCc1csc(Br)c1)c1ccncc1")
4.38
>>> readout_value("O=C(c1cc[nH]n1)N1CCCC1c1cncc(CN2CCOCC2)n1 (stereo unspecified)")
9.31
>>> readout_value("CCOc1ccc(C2CC(=O)NCc3nc(N)sc32)cc1CO (stereo unspecified)")
-6.33
>>> readout_value("Cc1nn(C)c2ncnc(N3CCCC(C)(O)C3)c12 (stereo unspecified)")
0.541
>>> readout_value("CS(=O)(=O)N1CCC(Oc2ccc(C#N)cc2)CC1")
-8.97
>>> readout_value("COc1ccc(F)c(NCc2cnn(C3CCS(=O)(=O)C3)c2)c1 (stereo unspecified)")
2.65
>>> readout_value("O=C(Cn1cc(C(=O)O)ccc1=O)Nc1ccc(Cl)cc1F")
-6.94
>>> readout_value("CCCn1ccnc1CN1C[C@@H](NC(C)=O)[C@H](c2ccc(C)cc2)C1")
1.9
>>> readout_value("O=C(Cn1ccc2ccc(Br)cc21)NCc1ccc(C(=O)O)cc1")
6.46
>>> readout_value("COc1ccc2c(c1)ncn2C[C@]1(O)CCCN2CCCC[C@@H]21")
-0.71
